Quick reference for pIC50 among some compounds
experimental_target: Epidermal growth factor receptor (Homo sapiens, UniProt P00533, L858R/T790M)
Sequence (P00533 25-1210 T790M/L858R limits assumed): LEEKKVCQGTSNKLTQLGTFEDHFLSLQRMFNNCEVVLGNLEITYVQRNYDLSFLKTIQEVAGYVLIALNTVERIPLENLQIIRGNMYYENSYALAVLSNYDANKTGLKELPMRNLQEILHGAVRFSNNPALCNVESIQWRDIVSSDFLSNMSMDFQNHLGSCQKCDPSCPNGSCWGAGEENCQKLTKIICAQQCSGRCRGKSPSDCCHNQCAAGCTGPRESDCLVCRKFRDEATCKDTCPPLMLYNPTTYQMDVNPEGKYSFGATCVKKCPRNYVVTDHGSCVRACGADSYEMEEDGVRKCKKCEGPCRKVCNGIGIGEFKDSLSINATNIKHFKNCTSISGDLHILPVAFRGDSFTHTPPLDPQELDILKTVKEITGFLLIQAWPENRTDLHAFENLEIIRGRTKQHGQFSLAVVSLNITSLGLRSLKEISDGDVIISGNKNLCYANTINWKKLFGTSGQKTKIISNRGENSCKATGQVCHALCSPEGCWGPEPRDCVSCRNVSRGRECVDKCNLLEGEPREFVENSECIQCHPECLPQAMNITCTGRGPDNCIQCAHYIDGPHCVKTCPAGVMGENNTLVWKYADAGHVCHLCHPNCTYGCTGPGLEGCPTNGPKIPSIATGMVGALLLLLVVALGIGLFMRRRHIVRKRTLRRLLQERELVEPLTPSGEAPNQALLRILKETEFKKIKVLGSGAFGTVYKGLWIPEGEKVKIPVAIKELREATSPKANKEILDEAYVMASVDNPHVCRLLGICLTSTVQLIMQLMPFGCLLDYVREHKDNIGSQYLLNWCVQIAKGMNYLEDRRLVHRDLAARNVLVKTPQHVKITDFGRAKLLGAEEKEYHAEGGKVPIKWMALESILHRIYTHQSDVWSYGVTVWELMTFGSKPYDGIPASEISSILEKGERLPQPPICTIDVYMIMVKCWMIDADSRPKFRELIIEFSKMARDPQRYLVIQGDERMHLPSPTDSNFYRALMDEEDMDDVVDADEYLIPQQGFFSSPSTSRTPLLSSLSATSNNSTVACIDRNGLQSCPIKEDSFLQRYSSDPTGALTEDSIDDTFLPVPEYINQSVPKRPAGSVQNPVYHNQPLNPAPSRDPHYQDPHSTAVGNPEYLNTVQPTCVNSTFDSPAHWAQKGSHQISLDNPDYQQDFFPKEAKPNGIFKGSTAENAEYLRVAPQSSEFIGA
assay_remarks: Inhibition of human recombinant GST-tagged EGFR L858R/T790M mutant expressed in baculovirus expression system reduction in phosphorylation using tyrosine 4 peptide as substrate after 60 mins FRET based Z'-LYTE assay
pIC50: −log10 of the molar value.
outcome_measure: pIC50

Cc1cc(=O)n2nc(SCc3ccc(Cl)cc3)nc2[nH]1	6.74
Cc1cc(=O)n2nc(SCc3cccc(C(F)(F)F)c3)nc2[nH]1	7.08
Cc1cc(=O)n2nc(SCc3ccc(F)cc3)nc2[nH]1	7.25
Cc1ccc(CSc2nc3[nH]c(C)cc(=O)n3n2)cc1	6.77
